The molecules listed here are annotated with their MIC.
system: Pichia kudriavzevii; assay: Antifungal activity against Candida krusei ATCC 6258 after 24 to 48 hrs by broth microdilution method; format: functional
Quick note: give the figure in µg/mL, leave out the unit.

Look over these answered cases.
molecule	recorded_value
OC(Cn1cncn1)(Cn1cncn1)c1ccc(F)cc1F [FLUCONAZOLE]	32
Nc1nc2ccc(OCc3ccccc3)cc2s1	64
Nc1nc2ccc(OCc3ccc(Cl)cc3)cc2s1	64

Param request: MIC | system Pichia kudriavzevii | item Nc1nc2ccc(COc3ccccc3)cc2s1 64

Look up and report MIC, with Pichia kudriavzevii as system, for COc1ccc2nc(N)sc2c1 512

System Pichia kudriavzevii. Read-out MIC. Item Nc1nc2ccc(Oc3ccc(Cl)cc3)cc2s1 . Report value. 32

---

tested on: Pichia kudriavzevii; test: Antifungal activity against Candida krusei ATCC 6258 after 24 to 48 hrs by broth microdilution method; assay type: functional
Item-by-item account of MIC
Respond with the bare value in µg/mL.

smiles_string	target_desc	unit_abbreviation	MIC
Nc1nc2ccc(OCCCc3ccccc3)cc2s1	Pichia kudriavzevii	µg/mL	16
Nc1nc2ccc(C(F)(F)F)cc2s1	Pichia kudriavzevii	µg/mL	64
Nc1nc2ccc(Oc3ccccc3)cc2s1	Pichia kudriavzevii	µg/mL	32
Nc1nc2ccc(OCCc3ccccc3)cc2s1	Pichia kudriavzevii	µg/mL	16
CCOc1ccc2nc(N)sc2c1	Pichia kudriavzevii	µg/mL	256

Check the records and state MIC for Nc1nc2ccc(OC(F)(F)F)cc2s1 128

---

test system: Candida parapsilosis; assay: Antifungal activity against Candida parapsilosis ATCC 22019 after 24 to 48 hrs by broth microdilution method; format: functional; conditions: Lodderomyces parapsilosis
We begin with a simple list: items and their reported MIC.
Unit µg/mL implied. Number only.

A selection of reference data follows.
smiles_string	target_desc	MIC / µg/mL
COc1ccc2nc(N)sc2c1	Candida parapsilosis	256
Nc1nc2ccc(C(F)(F)F)cc2s1	Candida parapsilosis	64
Nc1nc2ccc(Oc3ccccc3)cc2s1	Candida parapsilosis	16
Nc1nc2ccc(OCCCc3ccccc3)cc2s1	Candida parapsilosis	16
Nc1nc2ccc(OCc3ccc(Cl)cc3)cc2s1	Candida parapsilosis	8

Give a short answer stating reported MIC for Nc1nc2ccc(Oc3ccc(Cl)cc3)cc2s1 . 4

Item Nc1nc2ccc(OC(F)(F)F)cc2s1 : provide MIC 64

Provide one value: measured MIC of CCOc1ccc2nc(N)sc2c1 128

Give the value of MIC reported for the following: Nc1nc2ccc(OCc3ccccc3)cc2s1 8

Give the measured MIC for Nc1nc2ccc(OCCCCc3ccccc3)cc2s1 128

Complete the entry with MIC for Nc1nc2ccc(OCCc3ccccc3)cc2s1 16

Answer with the recorded MIC of Nc1nc2ccc(COc3ccccc3)cc2s1 only. 16

// fetch MIC given entry OC(Cn1cncn1)(Cn1cncn1)c1ccc(F)cc1F 2

Values were extracted from ChEMBL document CHEMBL2385068.
